apparent Kd overview
- System: MS2 coat protein
- test-name: apparent Kd, MS2 coat protein; higher = weaker binding; RNA-MaP array; FMN 200 µM where present
- run-parameters: designed as: OFF switch for flavin mononucleotide; no ligand
recorded-metric: apparent Kd (nM)

query-sequence: CUGUUACAUGAGGAUCACCCAUGUAAGGAUAUCUGCCACUAGAGGGUCACUUUGGGAUGGAGAAGGUACACGGG
reported-measurement: 34.6
--
query-sequence: GCGUAAAAGAUCCUAUUUAUCUACAUGAGGAUCACCCAUGUGCAGGAUAUGCUAAAAUUAAAAUAGCAGAAGGGCAAUAACCGC
reported-measurement: 54
--
query-sequence: CUGUACAUAGGAUAUAGUUGCUUUUACAUGAGGAUCACCCAUGUCACUCCUCUCUCUCUUCUAGAAGGAUGUUUCU
reported-measurement: 72.4
--
query-sequence: AGUAGAUCAGGAUAUACGUAAAUGGUAAUUAUGUAACUUCAACAUGAGGAUCACCCAUGUAGAAGGGAUCUACA
reported-measurement: 14.6
--
query-sequence: UUCUGGCUAGGAUAUACAGUGUCCACGAGUUAGUUGCCCUAACAUGAGGAUCACCCAUGUAGAAGGAGCGAGAA
reported-measurement: 48.2
--
query-sequence: GUCAGCUCGUGAGGAUAUACAACACUGCUUCGACAGUGUAUUAAGAUCACAUGAGGAUCACCCAUGUAGAAGGCACGAGCUGAU
reported-measurement: 13.6
--
query-sequence: ACAUGAGGAUCACCCAUGUUACGAACAUGAGGAUCACCCAUGUAGGAUAUGCUACUCAAAGAGUAGCAGAAGGACAUGUGCCUU
reported-measurement: 1090

----------
- Test system: MS2 coat protein
- test-name: apparent Kd, MS2 coat protein; higher = weaker binding; RNA-MaP array; FMN 200 µM where present
- run-parameters: ligand present: flavin mononucleotide; designed as: ON switch for flavin mononucleotide
apparent Kd overview
recorded-metric: apparent Kd

query-sequence: UCGAUGUAAGAGAAGGAGGACUUCAUGAGGAUCACCCAUGUGUUAGUACUUAGGAUAUUUGACAACAUGAGGAUCACCCAUGUC
reported-measurement: 61.6 nM
--
query-sequence: AGUGUCAUCGAGAAGGCCUCGACAUGAGGAUCACCCAUGUUGUUAUAUGGGAGGAUAUCGAUGAUACAGCUACGUUUCGUAGCA
reported-measurement: 14.7 nM
--
query-sequence: GUAGCUAUCGGAGGAUAUUCAUACCGGAAACGGACAUGAGGAUCACCCAUGUGGCGAAAGCAUUGGGAGAAGGCCGAUAGCUAC
reported-measurement: 19.7 nM
--
query-sequence: UAUAUUAUUAUAGGAUAUGGAUACGAUGCGUAUCCAGAAGGGUGAUUAUAAUAUAAUCUAUACAUGAGGAUCACCCAUGUUUAU
reported-measurement: 73.9 nM
--
query-sequence: UUAAUAAUACAAGGAUAUCUAUUGUUCUUUCGACAUACAUGAGGAUCACCCAUGUUAAUAUAUAUAGAGAAGGUGUAUUUUCAG
reported-measurement: 24.5 nM
--
query-sequence: GUAGCAUGCAGGCAGGAUAUUCAUAUUAAAACAUGAGGAUCACCCAUGUAGGCCAAAAGGCCUUGGGAGAAGGGCCACAUGCUAC
reported-measurement: 45.7 nM
--
query-sequence: CUGUAGAUAUCAGGAUAUCUAUUUCCUACAUGAGGAUCACCCAUGUAGGUGAUCAGCCAAGUAAAGGAGAAGGGAUAUCUAUAG
reported-measurement: 11 nM

----------
- System: MS2 coat protein
- test-name: apparent Kd, MS2 coat protein; higher = weaker binding; RNA-MaP array; FMN 200 µM where present
- run-parameters: ligand present: flavin mononucleotide; designed as: ON switch for flavin mononucleotide
recorded-metric: apparent Kd (nM)

query-sequence: GCGCAUGUCACAGGAUAUCCCAUAGUGUACAUGAGGAUCACCCAUGUACUGCAAUGCAGACACAAGGAGAAGGGUGAGACUCGU
reported-measurement: 96.7

query-sequence: UACGUUCUACGCGACAUGAGGAUCACCCAUGUUAGCCGAUCACAGGAUAUGUUGGAGCCGGUCGAACAGAAGGGUGAGUCUGCU
reported-measurement: 38.9

query-sequence: UUGGACGCCGUAGGAUAUGUAGGAUAUUCCUACAUGAGGAUCACCCAUGUUGACAUGGAAGAAGGACAGAAGGACGAUGUCCAU
reported-measurement: 4.78

query-sequence: AACACAACAUGAAACAUGAGGAUCACCCAUGUUGUUUGUAAUCAGGAUAUGAUCUCAAGAAUGAAUUAGAAGGGAUAUGGAUUU
reported-measurement: 39.6

query-sequence: UUUAUAAAUUAGAAGGCAUGAUGAAUUACAAUAGACAUGAGGAUCACCCAUGUGUGUUCAUGUCAUGAGGAUAUAGUCAUAUAU
reported-measurement: 9.93

query-sequence: UUAGCAUACCGAGGAUAUUCAUAUAAUAAAUAAACAUGAGGAUCACCCAUGUGGCGAAAGCCUAGGGAGAAGGCGGAAUGCUAU
reported-measurement: 24.6

query-sequence: GCGGAACAUGAGGAUCACCCAUGUAUCCCAAAUAUGGACUCACAGGAUAUCCCGAGUUUCCAGUGGGAGAAGGGUGACUCCAGA
reported-measurement: 11.1

query-sequence: GGCAGCGGACAAGGAUAUAAGACGCAGACCAAAUUAGAAGGUGUCAUCUGGCAAUGCGAAAGCAGACAUGAGGAUCACCCAUGU
reported-measurement: 61.7

query-sequence: ACCACGUUAGCGAUAUGAUCGAGAGAUCAUGUCGCUAAUUUUAGAAGGACAUGAGGAUCACCCAUGUAGGAUAUGGGACGUGGA
reported-measurement: 7.88

query-sequence: GUUAACGCAUGAGGAUAUGCUCACAUUUCAAGAGCAGAAGGUAUGUCUAUAGACAUGAGGAUCACCCAUGUAUUUAUCAUUGAA
reported-measurement: 42.5

query-sequence: GUCGGAAACGACAAAAGUAGCAUAGGAGAAGGUCCAUUAAACAUGAGGAUCACCCAUGUAAUUGGGAAGGAUAUCCUAUGCUAC
reported-measurement: 5.84

query-sequence: UUCGACGUCGUAGGAUAUGUAGGAUAUUCCUACAUGAGGAUCACCCAUGUUGACAUGGAAGAAGGACAGAAGGACGAUGUCCAU
reported-measurement: 6.4

query-sequence: CGCAAUGAUGGUAGUAAUAGAGCAUAGGAUAUGCUUGUACAUGAGGAUCACCCAUGUUAUAUUUUGCAGAAGGGUGUAAUUGCG
reported-measurement: 159

query-sequence: ACAUGGAAUACAGGAUAUGUUAGUUUACAGUAGAUUGGUUAUUACUUAACUACAGAAGGGUAAUACAUGAGGAUCACCCAUGUA
reported-measurement: 11.8

----------
- Tested on: MS2 coat protein
- test-name: apparent Kd, MS2 coat protein; higher = weaker binding; RNA-MaP array; FMN 200 µM where present
- run-parameters: ligand present: flavin mononucleotide; designed as: ON switch for flavin mononucleotide
Response key: rule met means apparent Kd >= 40 nM; rule not met means apparent Kd < 40 nM.

query-sequence: GGGUACAUCGGAGGAUAUCAUAUAAAUACAUGAGGAUCACCCAUGUCGAUGGAGACAUCGGAGAUUGAGAAGGCCGAUGUACCG
tested-on: MS2 coat protein
category: rule not met
//
query-sequence: AGUAAGAUGCAGAAGGUGUUAGCUAGAGCUACGACAUGAGGAUCACCCAUGUAAAACCGCCCGUACAAGGAUAUGCAUCUUACA
tested-on: MS2 coat protein
category: rule not met
//
query-sequence: GUAGCUAUCGCAGGAUAUCCUCAGCGGAAACGCACAUGAGGAUCACCCAUGUAAAUAAAUAAUUUGGAGAAGGGCGAUAGCUAC
tested-on: MS2 coat protein
category: rule not met
//
query-sequence: UUGGACGUCGUAGGAGAUGUAGGAUAUUCCUACAUGAGGAUCACCCAUGUUGACAUGGAAGAAGGACAGAAGGACGAUGUCCAU
tested-on: MS2 coat protein
category: rule not met
//
query-sequence: CGCACUAUACAUGAGGAUCACCCAUGUUAAUAUGAGGUAGUCAGAAGGCAUUGUAUGAGAUAUUAUGAGGAUAUGAUUAGUGCG
tested-on: MS2 coat protein
category: rule met
//
query-sequence: GCGGAACAUGAGGAUCACCCAUGUAUCCGAAAUAUGGACUCACAGGAUAUCCAGAGUUGCCAAUCGGAGAAGGGUGACUCCAGC
tested-on: MS2 coat protein
category: rule not met
//
query-sequence: AAUUGGAUGCAGAAGGCAUGGACGACUCGUCACAUUAACAUGAGGAUCACCCAUGUAAUAAGACAUGAGGAUAUGCAUCCUAAA
tested-on: MS2 coat protein
category: rule not met
//
query-sequence: CUAUGAACGAUAGGAUAUACUGAGGUUGAGUGGGUAGAAGGAUCGAUAGUGGAGAAGACAUGAGGAUCACCCAUGUUAUGGAUU
tested-on: MS2 coat protein
category: rule met
//
query-sequence: GCUGUCGCAUGAGGAUAUGGUCAGCUUUGCUGACCAGAAGGCAUGUCAAUAGACAUGAGGAUCACCCAUGUAGUUCGGGCGGCU
tested-on: MS2 coat protein
category: rule met
//
query-sequence: UAUAUAUAAUAUAUUAACAUGAGGAUCACCCAUGUCGCUAGACAGGAUAUAUUUAAUAUUAUAAAGUAGAAGGGUCAUAUAAUU
tested-on: MS2 coat protein
category: rule met
//
query-sequence: GGGUACAUCGGAGGAUAUCAUGUAAAUACAUGAGGAUCACCCAUGUCGAUCGAGACAUCGGAGAUUGAGAAGGCCGAUGUACCG
tested-on: MS2 coat protein
category: rule met
//
query-sequence: CUUGUACUCGGAGGAUAUCGAUAUCAAACAUGAGGAUCACCCAUGUUGAGGAUCACACAUGUAAAUGAGAAGGCUGACGUUGCU
tested-on: MS2 coat protein
category: rule not met
//
query-sequence: GUAUAUCACUUAGGAUAUCUAUAAUUUAUUGAAACAUGAGGAUCACCCAUGUUCAUAAAUUUAUAGGAGAAGGGAGUGAUAUAC
tested-on: MS2 coat protein
category: rule not met
